FYI, the data here is from PubChem BioAssay (NCI).

- method-description: NCI Yeast Anticancer Drug Screen. Data for the cln2 rad14 strain (AID 165);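 note: 0% = growth equal to vehicle treated cultures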
- setup-conditions: S. cerevisiae cln2 rad14 strain, at 50.0 µM, stronger effect = higher value
This is part of a sample that, as a whole, favours compounds with a hit. Of some 79,000 tested, about 15% had one in any assay.
observable: growth inhibition (%)
Kindly provide the numeric value in % only, without the unit symbol.

| compound | observable | unit-string | reported |
| --- | --- | --- | --- |
| COc1cnn(-c2ccccc2)c(=O)c1Cl | growth inhibition | % | -3.7 |
| CNC(=O)c1ccccc1S(=O)Cc1ccc(Br)cc1 (stereo not given) | growth inhibition | % | 8.35 |
| NC(N)=NS(=O)(=O)c1ccc(Nc2c3ccccc3nc3c(C(=O)N4CCN(CCO)CC4)cccc23)cc1 | growth inhibition | % | 22.4 |
| O=C(O)CS(=O)(=O)O | growth inhibition | % | 5.3 |
| Cc1cccc(N=C/C=C/c2ccccc2)c1C | growth inhibition | % | -50.6 |
| O=C(CCN1CCCC1)c1ccc2ccccc2c1 | growth inhibition | % | 43.6 |
| FC(F)(F)C1=NCCN1 | growth inhibition | % | 11.4 |
| CC(NC(=O)C(C)(C)C)c1ccc2c(c1)OCCO2 (stereo not given) | growth inhibition | % | -3.7 |
| CC(=O)OCc1ccc(C)cc1 | growth inhibition | % | -32.8 |
| Nc1ccccc1CO | growth inhibition | % | -0.05 |

IN: Endpoint output: growth inhibition of OCC1OC(n2c(=S)[nH]c3ccccc32)C(O)C1O (stereo not given) . Value?
OUT: 1.2

IN: Item: `O=C(O)CNC1CCCC1`
OUT: -1.6

IN: # repeat for `Cc1cccc(Cl)c1N=Nc1c(N)nc(N)[nH]c1=O`
OUT: -4.8

IN: Also check `CCOc1ccc(NC(C)=O)c([N+](=O)[O-])c1`
OUT: 9.45

IN: Okay, and CC(=O)OC1C[C@@](C)(O)[C@@]23O[C@@H]2[C@@H]2O[C@]2(C)C3C2OC(=O)C(C)[C@H]12 (stereo not given in full) ?
OUT: 7.55

###

- method-description: NCI Yeast Anticancer Drug Screen. Data for the cln2 rad14 strain (AID 165);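 note: 0% = growth equal to vehicle treated cultures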
- setup-conditions: S. cerevisiae cln2 rad14 strain, at 50.0 µM, stronger effect = higher value
About 79,000 compounds went through this panel and 15% of them were active in at least one assay; those are over-represented in the sample as a whole.
observable: growth inhibition (%)
// note: answer is a bare numeric in %

# example entries with known answers
| compound | observable | reported |
| --- | --- | --- |
| N#CCc1c(-c2ccccc2)n(S(=O)(=O)c2ccccc2)c2ccccc12 | growth inhibition | 8.45 |
| CCC12CC(=O)CCC1CCc1ccc(OC)c(OC)c12 (centres undefined) | growth inhibition | -7.2 |
| COC1OC(=O)c2ccccc21 (centres undefined) | growth inhibition | -0.7 |
| CN1C(=O)CC2(C)c3cc(O)ccc3N(C)C12 (centres undefined) | growth inhibition | 64.3 |
| O=c1nc2n(cc1F)C1OC(CCl)C(O)C1O2 (centres undefined) | growth inhibition | 1.05 |
| COC(OC)c1cccnc1C | growth inhibition | 6.65 |

IN: What value of growth inhibition has been recorded for this entry: `O=C(Cl)Cc1ccccc1[N+](=O)[O-]`
OUT: 6.55

IN: And `CCOCCn1c(=O)cc(C)c2ccccc21` ?
OUT: -41.3

IN: Now consider COc1cc(C(c2cc3c(cc2O)OCO3)n2ccnc2)cc(OC)c1OC (centres undefined) .
OUT: 8.75

IN: Cool, now `Cc1cccc(C)c1NCC(=O)NN`
OUT: -22.9

IN: Try CCOC(=O)/C(=C(/C)N=Cc1ccccc1[N+](=O)[O-])C(NN=O)c1ccccc1[N+](=O)[O-] (centres undefined) next.
OUT: 8.5

IN: Also `CN(C)c1ccc(/C=c2\sc3nnc(Cc4ccccc4)n3c2=O)cc1` , if possible.
OUT: 11.1

IN: For `Oc1ccc(Cl)cc1/C=N/NC(=S)Nc1cccc2cccnc12` then?
OUT: 20.6

IN: Request: `CC1(C)CC(OP(=O)(c2ccccc2)c2ccccc2)CC(C)(C)N1O`
OUT: 3.1

IN: Ok, now `O=C(O)/C=C\c1cccc([N+](=O)[O-])c1`
OUT: 22.3

IN: Now consider COC(=O)C(C(=O)C(=O)Nc1cccc(O)c1)c1nc2ccc(Cl)cc2[nH]c1=O (centres undefined) .
OUT: 2.55

IN: Here is the next compound: `O=C(C[n+]1ccccc1)N/N=C(\Cc1nc2ccc([N+](=O)[O-])cc2[nH]c1=O)C(=O)Nc1cc(Cl)c(Cl)cc1Cl`
OUT: -27.8

IN: What do we get for O=C1CC(O)C2C(=O)c3c(c(Cl)c4ccccc4c3O)C(=O)C2C1 (centres undefined) ?
OUT: 4.75

IN: Now this one: `CCc1cc(C(C)(C)C)c(O)c(C(C)(C)C)c1`
OUT: 25.2

IN: Now consider COc1ccc2c3c([nH]c2c1)C(C)N(S(=O)(=O)c1ccccc1)CC3 (centres undefined) and answer again.
OUT: -4.9

IN: Repeat with `COc1cccc(N2C(=O)c3c(c4[nH]c5ccccc5c4c4ccc(C(C)(C)C)cc34)C2=O)c1`
OUT: 18.3

IN: Now this one: `COCc1cc(CC(C)=O)nc(C/C=N/NC(N)=O)n1`
OUT: -28.4

IN: And the next one, `Cc1ccc(C)c(OC(=O)NC2CCCCC2)c1` ?
OUT: -57.6

IN: And the next one, Cn1c(=O)n2n(c1=O)C1C=CC2C2C=C(c3ccccc3)C21 (centres undefined) ?
OUT: 1.75
